tested on: OVCAR-4 ovarian; test: NCI-60 one-dose screen, 48 h; conditions: 10 µM unless noted
About 83,000 compounds went through this panel and 20% of them were active in at least one assay; those are over-represented in the sample as a whole. Calls of active or inactive are those of the source. Rule for the calls: active = growth percent below 10; inactive = the rest.
Please reply with one of these outcomes: active, inactive

compound	group-label
N#Cc1c2ncccc2c2nnc3cc(Cl)c(Cl)cc3n12	inactive

For this compound, state the assay outcome: "COc1ccc(C(=O)CN2C(=O)NC(c3ccccc3)(c3ccccc3)C2=O)cc1"
inactive

Identify the outcome logged in this assay for the compound shown: "CCOC(=O)CNS(=O)(=O)CC(=O)c1ccccc1"
inactive

Which result was noted for this compound in the test: CCCCCCC(C)N(CC(C)(C)O)C(=O)c1ccc([N+](=O)[O-])cc1 (configuration not stated)
inactive
